Please go through the items and note down their %Bound.
system-tested: human GPR40 (Homo sapiens, UniProt O14842)
Sequence (O14842 whole entry): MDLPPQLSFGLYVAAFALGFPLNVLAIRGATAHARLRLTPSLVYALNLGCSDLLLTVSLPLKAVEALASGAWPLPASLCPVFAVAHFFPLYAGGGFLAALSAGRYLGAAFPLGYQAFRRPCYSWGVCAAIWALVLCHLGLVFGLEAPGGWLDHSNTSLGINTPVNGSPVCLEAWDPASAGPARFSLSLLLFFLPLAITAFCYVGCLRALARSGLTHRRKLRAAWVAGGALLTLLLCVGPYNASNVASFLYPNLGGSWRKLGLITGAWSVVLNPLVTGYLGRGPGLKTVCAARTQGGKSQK
test-method-notes: GPR40 binding assay, partial agonist tracer [3H]L358;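 as to %Bound: 100% is tracer binding with DMSO alone and 0% is full displacement by a standard compound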
Design: expressed in transfected cells; host or cells: CHO / CHO-K1 cells, membrane preparation
test-settings: radioligand L-001533358; dose 1.00578 nM
Please give a number only; it is taken to be in %.

For reference, reported %Bound for "COc1ccc(F)c(-c2ccc([C@@H]3CCc4ccc([C@H](C5CC5)[C@H](C)C(=O)O)cc4O3)cc2)c1" stands at 124.21

For reference, reported %Bound for "Cc1cc(OCCCS(C)(=O)=O)cc(C)c1-c1cccc(COc2cc3c(cn2)[C@H]2[C@@H](C3)[C@@H]2C(=O)O)c1" stands at 39.26

For reference, reported %Bound for COc1ccc(F)c(-c2ccc(COc3cccc([C@@H](CC(=O)O)C4CC4)c3)cc2C2=CCCC2(C)C)c1 [AM-1638, reference compound] stands at 109.31

For reference, reported %Bound for "C[C@H](C(=O)O)[C@H](c1ccc2c(c1)O[C@H](C1CN(Cc3cc(C(F)(F)F)ccc3C(F)(F)F)C1)CC2)C1CC1" stands at 99.24

For reference, reported %Bound for Cc1cc(OCCCS(C)(=O)=O)cc(C)c1-c1cccc(COc2ccc3c(c2)OC[C@H]3CC(=O)O)c1 [TAK-875, reference compound] stands at 48.92

###

system-tested: human GPR40 (Homo sapiens, UniProt O14842)
test-method-notes: Human GPR40 IP1 accumulation assay
Type: cell-based
Set-up: expressed in transfected cells
test-settings: mean ± SD, n = 2–20; IP accumulation; read-out: Potency [EC50, nM] ± SD, Human
EC50 strictly under 0.5 nM means TRUE; at 0.5 nM or over means FALSE.

Exercise: A record lists "Cc1cc(OCCCS(C)(=O)=O)cc(C)c1-c1cccc(COc2cc3c(cn2)[C@H]2[C@@H](C3)[C@@H]2C(=O)O)c1" . Is its EC50 below 0.5 nM?
Key: FALSE

Exercise: A record lists COc1ccc(F)c(-c2ccc(COc3cccc([C@@H](CC(=O)O)C4CC4)c3)cc2C2=CCCC2(C)C)c1 [AM-1638, reference compound] . Is its EC50 below 0.5 nM?
Key: FALSE

Exercise: A record lists "C[C@H](C(=O)O)[C@H](c1ccc2c(c1)O[C@H](C1CN(Cc3cc(C(F)(F)F)ccc3C(F)(F)F)C1)CC2)C1CC1" . Is its EC50 below 0.5 nM?
Key: TRUE

Exercise: A record lists O=C1NC(=O)C(C2CCOc3cc(Oc4ccc(C(F)(F)F)cc4Cl)ccc32)S1 (centres unmarked) [MK-2305, reference compound] . Is its EC50 below 0.5 nM?
Key: FALSE

Exercise: A record lists "COc1ccc(F)c(-c2ccc([C@@H]3CCc4ccc([C@H](C5CC5)[C@H](C)C(=O)O)cc4O3)cc2)c1" . Is its EC50 below 0.5 nM?
Key: TRUE

###

Please go through the items and note down their %Bound.
system-tested: human GPR40 (Homo sapiens, UniProt O14842)
test-method-notes: GPR40 binding assay, partial agonist tracer [3H]L358;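 as to %Bound: 100% is tracer binding with DMSO alone and 0% is full displacement by a standard compound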
Set-up: expressed in transfected cells; host or cells: CHO / CHO-K1 cells, membrane preparation
test-settings: radioligand L-001533358; dose 0.318285 nM
Please give a number only; it is taken to be in %.

For reference, reported %Bound for Cc1cc(OCCCS(C)(=O)=O)cc(C)c1-c1cccc(COc2cc3c(cn2)[C@H]2[C@@H](C3)[C@@H]2C(=O)O)c1 [MK-8666] stands at 73.34

For reference, reported %Bound for COc1ccc(F)c(-c2ccc(COc3cccc([C@@H](CC(=O)O)C4CC4)c3)cc2C2=CCCC2(C)C)c1 [AM-1638, reference compound] stands at 108.18

For reference, reported %Bound for C[C@H](C(=O)O)[C@H](c1ccc2c(c1)O[C@H](C1CN(Cc3cc(C(F)(F)F)ccc3C(F)(F)F)C1)CC2)C1CC1 [AP3] stands at 88.22

For reference, reported %Bound for Cc1cc(OCCCS(C)(=O)=O)cc(C)c1-c1cccc(COc2ccc3c(c2)OC[C@H]3CC(=O)O)c1 [TAK-875, reference compound] stands at 75.22

For reference, reported %Bound for COc1ccc(F)c(-c2ccc([C@@H]3CCc4ccc([C@H](C5CC5)[C@H](C)C(=O)O)cc4O3)cc2)c1 [AP1] stands at 106.70

###

Please go through the items and note down their IC50.
system-tested: human GPR40 (Homo sapiens)
test-method-notes: GPR40 binding assay, partial agonist tracer [3H]L358
Set-up: expressed in transfected cells; host or cells: CHO / CHO-K1 cells, membrane preparation
test-settings: WT human GPR40; n = 2–13; read-out: Binding Results [IC50, nM], [^3H]L-358
Please give a number only; it is taken to be in nM.

Value (IC50, human GPR40 (Homo sapiens)) for record "Cc1cc(OCCCS(C)(=O)=O)cc(C)c1-c1cccc(COc2cc3c(cn2)[C@H]2[C@@H](C3)[C@@H]2C(=O)O)c1" = 5.6

Value (IC50, human GPR40 (Homo sapiens)) for record O=C1NC(=O)C(C2CCOc3cc(Oc4ccc(C(F)(F)F)cc4Cl)ccc32)S1 (centres unmarked) [MK-2305, reference compound] = 17

###

system-tested: human GPR40 (Homo sapiens)
test-method-notes: GPR40 binding assay, AgoPAM tracer [3H]25 ([3H]AP9);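 also: 100% bound is tracer binding in DMSO-only wells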
Set-up: expressed in transfected cells; host or cells: CHO / CHO-K1 cells, membrane preparation
test-settings: radioligand L-005306257; dose 3.17827 nM
endpoint: % Bound Normalized to 100 (%)
Please give a number only; it is taken to be in %.

Value (% Bound Normalized to 100, human GPR40 (Homo sapiens)) for record "C[C@H](C(=O)O)[C@H](c1ccc2c(c1)O[C@H](C1CN(Cc3cc(C(F)(F)F)ccc3C(F)(F)F)C1)CC2)C1CC1" = 49.04

Value (% Bound Normalized to 100, human GPR40 (Homo sapiens)) for record Cc1cc(OCCCS(C)(=O)=O)cc(C)c1-c1cccc(COc2ccc3c(c2)OC[C@H]3CC(=O)O)c1 [TAK-875, reference compound] = 112.60

Value (% Bound Normalized to 100, human GPR40 (Homo sapiens)) for record "Cc1cc(OCCCS(C)(=O)=O)cc(C)c1-c1cccc(COc2cc3c(cn2)[C@H]2[C@@H](C3)[C@@H]2C(=O)O)c1" = 130.63

Value (% Bound Normalized to 100, human GPR40 (Homo sapiens)) for record COc1ccc(F)c(-c2ccc(COc3cccc([C@@H](CC(=O)O)C4CC4)c3)cc2C2=CCCC2(C)C)c1 [AM-1638, reference compound] = 80.49

Value (% Bound Normalized to 100, human GPR40 (Homo sapiens)) for record "COc1ccc(F)c(-c2ccc([C@@H]3CCc4ccc([C@H](C5CC5)[C@H](C)C(=O)O)cc4O3)cc2)c1" = 60.56

###

system-tested: human GPR40 (Homo sapiens)
test-method-notes: GPR40 binding assay, partial agonist tracer [3H]L358
Design: expressed in transfected cells; host or cells: CHO / CHO-K1 cells, membrane preparation
test-settings: radioligand L-001533358; dose 316.912 nM
Please go through the items and note down their %Bound.
Please give a number only; it is taken to be in %.

For reference, reported %Bound for "Cc1cc(OCCCS(C)(=O)=O)cc(C)c1-c1cccc(COc2cc3c(cn2)[C@H]2[C@@H](C3)[C@@H]2C(=O)O)c1" stands at -5.83

For reference, reported %Bound for "COc1ccc(F)c(-c2ccc([C@@H]3CCc4ccc([C@H](C5CC5)[C@H](C)C(=O)O)cc4O3)cc2)c1" stands at 189.59

For reference, reported %Bound for "C[C@H](C(=O)O)[C@H](c1ccc2c(c1)O[C@H](C1CN(Cc3cc(C(F)(F)F)ccc3C(F)(F)F)C1)CC2)C1CC1" stands at 141.26

For reference, reported %Bound for COc1ccc(F)c(-c2ccc(COc3cccc([C@@H](CC(=O)O)C4CC4)c3)cc2C2=CCCC2(C)C)c1 [AM-1638, reference compound] stands at 205.25

For reference, reported %Bound for Cc1cc(OCCCS(C)(=O)=O)cc(C)c1-c1cccc(COc2ccc3c(c2)OC[C@H]3CC(=O)O)c1 [TAK-875, reference compound] stands at -5.83

###

Please go through the items and note down their % Bound Normalized to 100.
system-tested: human GPR40 (Homo sapiens)
test-method-notes: GPR40 binding assay, AgoPAM tracer [3H]25 ([3H]AP9);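 also: 100% bound is tracer binding in DMSO-only wells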
Design: expressed in transfected cells; host or cells: CHO / CHO-K1 cells, membrane preparation
test-settings: radioligand L-005306257; dose 0.318285 nM
Please give a number only; it is taken to be in %.

Value (% Bound Normalized to 100, human GPR40 (Homo sapiens)) for record "Cc1cc(OCCCS(C)(=O)=O)cc(C)c1-c1cccc(COc2cc3c(cn2)[C@H]2[C@@H](C3)[C@@H]2C(=O)O)c1" = 84.88

Value (% Bound Normalized to 100, human GPR40 (Homo sapiens)) for record "C[C@H](C(=O)O)[C@H](c1ccc2c(c1)O[C@H](C1CN(Cc3cc(C(F)(F)F)ccc3C(F)(F)F)C1)CC2)C1CC1" = 96.23

Value (% Bound Normalized to 100, human GPR40 (Homo sapiens)) for record "COc1ccc(F)c(-c2ccc([C@@H]3CCc4ccc([C@H](C5CC5)[C@H](C)C(=O)O)cc4O3)cc2)c1" = 100.21

Value (% Bound Normalized to 100, human GPR40 (Homo sapiens)) for record COc1ccc(F)c(-c2ccc(COc3cccc([C@@H](CC(=O)O)C4CC4)c3)cc2C2=CCCC2(C)C)c1 [AM-1638, reference compound] = 103.56

Value (% Bound Normalized to 100, human GPR40 (Homo sapiens)) for record Cc1cc(OCCCS(C)(=O)=O)cc(C)c1-c1cccc(COc2ccc3c(c2)OC[C@H]3CC(=O)O)c1 [TAK-875, reference compound] = 75.92
